# System: P. aeruginosa (Pa)
# method-summary: Broth microdilution minimum inhibitory concentration (MIC)
# Type: cell-based
# condition-set: Pseudomonas aeruginosa, read-out: Pa MIC + bicarb
Structures can show the parent of a compound that is named as a salt.
metric: MIC

Worked cases, MIC given:
- compound: "CCN(Cc1ccc(-n2ccc(NC(=O)N3CCN(C(=O)C(C)(C)N)CC3)nc2=O)cc1F)[C@H]1CC[C@H](N)CC1"
  experimental-target: "P. aeruginosa (Pa)"
  experimental-value: "> 32 µg/mL"
- compound: "CC(C)(N)C(=O)N1CCN(C(=O)Nc2ccn(-c3ccc(CN4CCCC(N)CC4)c(F)c3)c(=O)n2)CC1 (centres unmarked) [Compound 334, hydrochloride salt]"
  experimental-target: "P. aeruginosa (Pa)"
  experimental-value: "> 32 µg/mL"
- compound: "CC(C)(N)C(=O)N1CCN(C(=O)Nc2ccn(-c3ccc(CN[C@H]4CC[C@H](N)CC4)c(OC(F)(F)F)c3)c(=O)n2)CC1 [Compound 332, hydrochloride salt]"
  experimental-target: "P. aeruginosa (Pa)"
  experimental-value: "> 32 µg/mL"
- compound: "CCN(Cc1ccc(-n2ccc(NC(=O)N3CCN(C(=O)C4(N)CCC4)CC3)nc2=O)cc1)C1CCC(N)CC1 (centres unmarked) [Compound 315, hydrochloride salt]"
  experimental-target: "P. aeruginosa (Pa)"
  experimental-value: "> 32 µg/mL"

Would you mind telling me what MIC value was observed for NC1CCCN(CCc2ccc(-n3ccc(NC(=O)N4CCN(C(=O)C5CCCN5)CC4)nc3=O)cc2)CC1 (centres unmarked) [Compound 310, hydrochloride salt] ? > 32 µg/mL
